Test system: Mus musculus
assay.comment: Toxicity in BDF1 mouse allografted with mouse L1210 cells at 200 mg/kg
Type: organism-based
Parameters: dose 200 mg/kg
assay.setup: in vivo

# compound, Activity
data = [
    ("COC(=O)[C@@H]1[C@H]2O[C@@H]([C@H]3O[C@H]32)[C@@H]1C(=O)OC", "Non-toxic"),
    ("COC(=O)[C@@H]1[C@H](C(=O)OC)[C@@H]2C=C[C@@H]1O2", "Non-toxic"),
    ("COC(=O)[C@@H]1[C@H]2C[C@@H]([C@@H]3O[C@H]23)[C@@H]1C(=O)OC", "Non-toxic"),
    ("COC(=O)C1=C(C(=O)OC)C2C=CC1C2", "Non-toxic"),
    ("C1OCC2OC12 (stereo unspecified)", "Non-toxic"),
    ("COC(=O)C1=C(C(=O)OC)[C@H]2C[C@H]1[C@@H]1O[C@@H]12", "Non-toxic"),
    ("C1=CCC2OC2C1 (stereo unspecified)", "Non-toxic"),
    ("COC(=O)[C@@H]1[C@H](C(=O)OC)[C@@H]2C=C[C@@H]1C2", "Non-toxic"),
    ("COC(=O)C1=C(C(=O)OC)C2CCC1C2", "Non-toxic"),
    ("COC(=O)C1=C(C(=O)OC)C2CCC1O2", "Non-toxic"),
    ("C1CC2CC1C1OC21 (stereo unspecified)", "Non-toxic"),
    ("COC(=O)C1CC=CC(C)C1C(=O)OC (stereo unspecified)", "Non-toxic"),
    ("COC(=O)C1=C(C(=O)OC)C2(C)C=CC1O2 (stereo unspecified)", "Toxic"),
    ("COC(=O)C1CC2OC2C(C)C1C(=O)OC (stereo unspecified)", "Non-toxic"),
    ("COC(=O)C1=C(C(=O)OC)[C@H]2O[C@H]1[C@@H]1O[C@@H]12", "Toxic"),
    ("COC(=O)C1=C(C(=O)OC)[C@@]2(C)O[C@H]1[C@@H]1O[C@@H]12", "Toxic"),
]

---

Tested on: Mus musculus
assay.comment: Toxicity in BDF1 mouse allografted with mouse L1210 cells at 400 mg/kg
Format: organism-based
Design: dose 400 mg/kg
assay.setup: in vivo
metric: Activity

# compound, result
measured = [
    ("COC(=O)[C@@H]1[C@H]2C[C@@H]([C@@H]3O[C@H]23)[C@@H]1C(=O)OC", "Non-toxic"),
    ("COC(=O)C1=C(C(=O)OC)[C@@]2(C)O[C@H]1[C@@H]1O[C@@H]12", "Toxic"),
    ("COC(=O)C1=C(C(=O)OC)[C@H]2O[C@H]1[C@@H]1O[C@@H]12", "Toxic"),
    ("COC(=O)C1=C(C(=O)OC)[C@H]2C[C@H]1[C@@H]1O[C@@H]12", "Toxic"),
    ("COC(=O)[C@@H]1[C@H]2O[C@@H]([C@H]3O[C@H]32)[C@@H]1C(=O)OC", "Non-toxic"),
    ("C1OCC2OC12 (stereo unspecified)", "Non-toxic"),
    ("COC(=O)C1=C(C(=O)OC)C2CCC1C2", "Non-toxic"),
    ("COC(=O)C1=C(C(=O)OC)C2CCC1O2", "Non-toxic"),
    ("COC(=O)C1CC2OC2C(C)C1C(=O)OC (stereo unspecified)", "Non-toxic"),
    ("COC(=O)C1=C(C(=O)OC)C2C=CC1C2", "Non-toxic"),
    ("C1=CCC2OC2C1 (stereo unspecified)", "Toxic"),
]

---

System: Mus musculus
assay.comment: Toxicity in BDF1 mouse allografted with mouse L1210 cells at 400 mg/kg
Format: organism-based
Set-up: dose 400 mg/kg
assay.setup: in vivo
metric: Activity

# compound, result
records = [
    ("C1CC2CC1C1OC21 (stereo not given)", "Non-toxic"),
    ("COC(=O)[C@@H]1[C@H](C(=O)OC)[C@@H]2C=C[C@@H]1O2", "Non-toxic"),
    ("COC(=O)[C@@H]1[C@H](C(=O)OC)[C@@H]2C=C[C@@H]1C2", "Non-toxic"),
    ("COC(=O)C1CC=CC(C)C1C(=O)OC (stereo not given)", "Non-toxic"),
    ("COC(=O)C1=C(C(=O)OC)C2(C)C=CC1O2 (stereo not given)", "Toxic"),
]
